measured on: T1, Axl protein (human, UniProt P30530 26-451)
T1 construct: extracellular domain; also called human Axl; hAxl
T1 sequence (looked up): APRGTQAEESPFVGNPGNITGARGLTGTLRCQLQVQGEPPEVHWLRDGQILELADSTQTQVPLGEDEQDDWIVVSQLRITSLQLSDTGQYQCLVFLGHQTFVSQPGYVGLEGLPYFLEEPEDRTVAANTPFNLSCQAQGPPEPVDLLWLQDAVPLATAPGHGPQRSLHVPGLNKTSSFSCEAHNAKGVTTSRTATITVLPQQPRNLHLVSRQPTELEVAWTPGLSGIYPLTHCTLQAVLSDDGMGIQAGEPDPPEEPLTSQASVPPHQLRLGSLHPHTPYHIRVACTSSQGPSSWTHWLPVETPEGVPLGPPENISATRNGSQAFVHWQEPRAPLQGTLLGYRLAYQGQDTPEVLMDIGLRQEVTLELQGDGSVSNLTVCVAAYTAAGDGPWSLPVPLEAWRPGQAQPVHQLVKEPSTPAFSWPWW
measurement protocol: ELISA, 1:9 dilution, pH 6.0 over pH 7.4
parameter measured: Affinity ELISA CPE mutant ratio (1:9, pH 6.0/7.4) (ratio)
// units = ratio; emit number, no label

1) LC-H091T (antibody, V domains shown) VH: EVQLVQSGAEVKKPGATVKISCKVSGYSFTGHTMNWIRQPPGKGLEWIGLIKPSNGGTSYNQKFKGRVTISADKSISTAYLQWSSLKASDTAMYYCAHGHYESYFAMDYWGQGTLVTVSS VL: DIQMTQSPSSLSASVGDRVTITCKASQDVSSAVAWYQQKPGQAPRLLIYWASTRHTGVPSRFSGSGSGTEFTLTISSLQPDDFATYYCQETFSTPLTFGQGTKVEIK    3.78

Below: the item to evaluate.
Query: Quick one: Affinity ELISA CPE mutant ratio (1:9, pH 6.0/7.4) for LC-H091V (antibody, V domains shown) VH: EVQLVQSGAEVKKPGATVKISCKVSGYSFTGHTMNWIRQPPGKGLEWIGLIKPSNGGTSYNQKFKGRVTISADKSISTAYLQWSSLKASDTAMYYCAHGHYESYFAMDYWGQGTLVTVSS VL: DIQMTQSPSSLSASVGDRVTITCKASQDVSSAVAWYQQKPGQAPRLLIYWASTRHTGVPSRFSGSGSGTEFTLTISSLQPDDFATYYCQEVFSTPLTFGQGTKVEIK ?
Response: 1.17

Value source: patent US20190177417A1
